Biological target: human 5-HT6 receptor (Homo sapiens, UniProt P50406)
Sequence (P50406 whole entry): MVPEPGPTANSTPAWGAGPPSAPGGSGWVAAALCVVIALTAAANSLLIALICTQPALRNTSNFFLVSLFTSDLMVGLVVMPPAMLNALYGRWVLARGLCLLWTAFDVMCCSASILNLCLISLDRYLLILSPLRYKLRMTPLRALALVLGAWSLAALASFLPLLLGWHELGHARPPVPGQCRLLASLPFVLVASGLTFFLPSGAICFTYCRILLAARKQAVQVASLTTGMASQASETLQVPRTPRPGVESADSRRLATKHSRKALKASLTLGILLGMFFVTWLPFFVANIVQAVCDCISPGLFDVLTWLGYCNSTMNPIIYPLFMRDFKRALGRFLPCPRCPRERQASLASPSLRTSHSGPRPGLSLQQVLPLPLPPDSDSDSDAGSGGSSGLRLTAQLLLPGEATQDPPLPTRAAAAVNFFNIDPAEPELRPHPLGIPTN
Assay: 5-HT6 intrinsic activity assay (inhibition of 5-HT induced increase in cAMP)
Details: read-out: Antagonist potency at the human 5-HT6 receptor, fKi (= IC50,corr)
Listing of entries alongside the reported IC50.
# output: bare number, implied unit nM

Problem: Look at this compound and give its reported IC50. `CN1CCOc2ccc3c(ccn3S(=O)(=O)c3ccccc3)c2C1`
Result: 3

Problem: Entry `O=S(=O)(c1ccccc1)n1ccc2c3c(ccc21)OCCNC3` has what IC50?
Result: 5

Problem: Returns the measured IC50 for the input compound. Input: `CN1CCOc2ccc3c(ccn3S(=O)(=O)c3ccc4ncsc4c3)c2C1`
Result: 1
